Overview of recorded IC50 (nM) Ca2+ assay (method 1) for various binders
# tested-target: human CXCR4 (human, UniProt P61073 1-352)
# Sequence (P61073 whole entry): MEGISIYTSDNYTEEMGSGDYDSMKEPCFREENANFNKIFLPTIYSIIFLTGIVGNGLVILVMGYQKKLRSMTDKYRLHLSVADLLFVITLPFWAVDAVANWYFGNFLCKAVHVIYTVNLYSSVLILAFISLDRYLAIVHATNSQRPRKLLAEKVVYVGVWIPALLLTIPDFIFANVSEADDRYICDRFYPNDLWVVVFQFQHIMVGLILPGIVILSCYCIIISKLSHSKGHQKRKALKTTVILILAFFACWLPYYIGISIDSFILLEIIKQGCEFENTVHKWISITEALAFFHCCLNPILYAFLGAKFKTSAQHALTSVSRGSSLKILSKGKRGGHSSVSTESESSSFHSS
# test-summary: cell-based or functional assay
[ ]: non-standard residue; d: D form. 2Nal = N[C@@H](Cc1ccc2ccccc2c1)C(=O)O; Cit = NC(=O)NCCC[C@H](N)C(=O)O
Field: numeric (nM). Do not append units.

cyclo(YR[Cit]FRVPRR[2Nal]FY[Cit]K[dP]P) (SMILES CC(C)[C@@H]1NC(=O)[C@H](CCCNC(=N)N)NC(=O)[C@H](Cc2ccccc2)NC(=O)[C@H](CCCNC(N)=O)NC(=O)[C@H](CCCNC(=N)N)NC(=O)[C@H](Cc2ccc(O)cc2)NC(=O)[C@@H]2CCCN2C(=O)[C@H]2CCCN2C(=O)[C@H](CCCCN)NC(=O)[C@H](CCCNC(N)=O)NC(=O)[C@H](Cc2ccc(O)cc2)NC(=O)[C@H](Cc2ccccc2)NC(=O)[C@H](Cc2ccc3ccccc3c2)NC(=O)[C@H](CCCNC(=N)N)NC(=O)[C@H](CCCNC(=N)N)NC(=O)[C@@H]2CCCN2C1=O) [Example 28] | 2680

Next up:
// query Determine from records and report IC50 (nM) Ca2+ assay (method 1) for cyclo(YR[Cit]VR[Cit]PRR[2Nal]FY[Cit]K[dP]P) (SMILES CC(C)[C@@H]1NC(=O)[C@H](CCCNC(N)=O)NC(=O)[C@H](CCCNC(=N)N)NC(=O)[C@H](Cc2ccc(O)cc2)NC(=O)[C@@H]2CCCN2C(=O)[C@H]2CCCN2C(=O)[C@H](CCCCN)NC(=O)[C@H](CCCNC(N)=O)NC(=O)[C@H](Cc2ccc(O)cc2)NC(=O)[C@H](Cc2ccccc2)NC(=O)[C@H](Cc2ccc3ccccc3c2)NC(=O)[C@H](CCCNC(=N)N)NC(=O)[C@H](CCCNC(=N)N)NC(=O)[C@@H]2CCCN2C(=O)[C@H](CCCNC(N)=O)NC(=O)[C@H](CCCNC(=N)N)NC1=O) [Example 31]
// result 1470

meta.source: patent US20150087577A1
